B1: Azoarcus group I ribozyme (parent)
chain: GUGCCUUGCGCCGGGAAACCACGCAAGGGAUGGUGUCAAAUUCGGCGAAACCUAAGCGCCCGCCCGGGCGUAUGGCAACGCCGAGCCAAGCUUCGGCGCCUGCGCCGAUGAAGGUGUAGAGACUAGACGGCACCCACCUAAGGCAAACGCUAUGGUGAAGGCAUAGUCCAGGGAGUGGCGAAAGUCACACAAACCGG

Variants of: B1
procedure_details: reverse-splicing fitness (ratio to wild type); higher = more active; in vitro selection; Mg2+ level not given
quantity_measured: reverse-splicing fitness

>>> df
                    variant_description  measurement
 0                     C82G A111C U176A        0.133
 1  A111G A120U A145U C150U C169U U176C       0.0168
 2              A111U A120U A145U C150A       0.0527
 3                           C82A A145C        0.586
 4         C82U A111G A120C C169A U176G      0.00425
 5        A111C A120G A145U C150G U176C       0.0169
 6              A111G A120G A145U C150G       0.0319
 7   C82G A111C A120U A145C C169A U176G      0.00216
 8         C82U A111C A145G C150A C169A       0.0093
 9                          A111G A120U        0.785
10         C82A A111G A120G A145U U176C       0.0167
